- Test system: Lewis lung carcinoma
- experimental.protocol: Antitumor effect on experimental tumors in mice, Lewis lung carcinoma (solid), tumor inhibitory ratio
- Format: in vivo, BDF1 male mice
- study.conditions: 100 mg/kg, i.p., schedule 5q2d (day 1, 3, 5, 7 and 9), tumors weighed at day 13
metric.name: Inhibition Ratio, Lewis lung carcinoma (solid) (%)
Respond with the bare value in %.

Give the measured Inhibition Ratio, Lewis lung carcinoma (solid) for NC(=O)c1[nH]cnc1OC(=O)C12CC3CC(CC(Br)(C3)C1)C2
66.2

Give the measured Inhibition Ratio, Lewis lung carcinoma (solid) for NC(=O)c1[nH]cnc1OC(=O)C12CC3CC(C1)CC(c1ccccc1)(C3)C2
85.7

Give the measured Inhibition Ratio, Lewis lung carcinoma (solid) for NC(=O)c1[nH]cnc1OC(=O)C12CC3CC(CC(F)(C3)C1)C2
65

Give the measured Inhibition Ratio, Lewis lung carcinoma (solid) for NC(=O)c1[nH]cnc1OC(=O)C12CC3CC(CC(Cl)(C3)C1)C2
71.1

Give the measured Inhibition Ratio, Lewis lung carcinoma (solid) for CC12CC3(C)CC(C)(C1)CC(C(=O)Oc1nc[nH]c1C(N)=O)(C2)C3
90

###

- experimental.protocol: Acute toxicities (LD50)
- study.conditions: mouse, in vivo, ip; ICR male mice, 5 weeks old, intraperitoneal
Assignment: determine reported LD50 for the given compounds.

Give the measured LD50 for NC(=O)c1[nH]cnc1OC(=O)C12CC3CC(CC(Br)(C3)C1)C2
670 to 1000 mg/kg

Give the measured LD50 for NC(=O)c1[nH]cnc1OC(=O)C12CC3CC(CC(C3)C1)C2
250 to 297 mg/kg

Give the measured LD50 for CC12CC3(C)CC(C)(C1)CC(C(=O)Oc1nc[nH]c1C(N)=O)(C2)C3
670 to 1000 mg/kg

Give the measured LD50 for NC(=O)c1[nH]cnc1OC(=O)C12CC3CC(CC(F)(C3)C1)C2
670 to 1000 mg/kg

Give the measured LD50 for NC(=O)c1[nH]cnc1OC(=O)C12CC3CC(CC(Cl)(C3)C1)C2
> 1000 mg/kg
